Proliferation of mouse NFS-60 cells, induced by G-CSF variants values by entry
Tested on: mouse NFS-60 cells
experiment: Mitogenicity of G-CSF variants for mouse NFS-60 cells (Example 6.3)
Format: cell-based
study-conditions: Conc. 50 pg/ml (G-CSF content), 3 days
Method: G-CSF is known for its specific effects on the proliferation, differentiation and activation of hematopoietic cells of the neutrophilic granulocyte lineage. The mitogenic capacity of G-CSF variants was tested using mouse NFS-60 cells (N. Shirafuji et al., Exp. Hematol. 1989, 17, 116-119). […] NFS-60 cells were exposed to purified G-CSF variants (purification according to examples 3A 1 und 2, protein quantification according to example 3B1): […]
Respond with the number and no other words.

HES-GCSF 30/0.4: hG-CSF conjugated with AldehydoHES30/0.4 of example 6.1(f), prepared in example 6.2(d) (conjugate, UniProt P09919 31-207, looked up, hydroxyethyl starch conjugate HES30/0.4) Granulocyte …: TPLGPASSLPQSFLLKCLEQVRKIQGDGAALQEKLVSECATYKLCHPEELVLLGHSLGIPWAPLSSCPSQALQLAGCLSQLHSGLFLYQGLLQALEGISPELGPTLDTLQLDVADFATTIWQQMEELGMAPALQPTQGAMPAFASAFQRRAGGVLVASHLQSFLEVSYRVLRHLAQP : 2.50

# input molecule: HES-GCSF 10/0.4: hG-CSF conjugated with AldehydoHES10/0.4 of example 6.1(b), prepared in example 6.2(b) (conjugate, UniProt P09919 31-207, looked up, hydroxyethyl starch conjugate HES10/0.4) Granulocyte …: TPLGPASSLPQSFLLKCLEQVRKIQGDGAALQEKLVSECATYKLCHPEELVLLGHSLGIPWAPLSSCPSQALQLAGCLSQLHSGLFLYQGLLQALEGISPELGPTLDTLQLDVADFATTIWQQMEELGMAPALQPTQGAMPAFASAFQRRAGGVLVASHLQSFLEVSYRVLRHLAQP ; wanted: its Proliferation of mouse NFS-60 cells, induced by G-CSF variants
2.67

# input molecule: Mock-incubation: reaction control: hG-CSF incubated with 197 mg/ml non-functionalized HES50/0.7 (MW 47,000 D, DS 0.76) (protein, UniProt P09919 31-207, looked up, mixed with non-functionalized HES) Granulocyte …: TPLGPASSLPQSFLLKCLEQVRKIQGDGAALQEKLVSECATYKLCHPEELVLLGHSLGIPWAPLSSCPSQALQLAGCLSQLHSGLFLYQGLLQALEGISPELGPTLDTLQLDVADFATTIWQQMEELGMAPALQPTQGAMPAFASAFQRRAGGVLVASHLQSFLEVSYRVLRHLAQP ; wanted: its Proliferation of mouse NFS-60 cells, induced by G-CSF variants
2.47

Value source: patent US8287850B2
